Give pIC50 for every item shown.
systemName: BRD4 BD1 (Homo sapiens, UniProt O60885)
experimentalDetails: AlphaScreen binding assay, BRD4 Bromodomain 1
pIC50: −log10 of the molar value.

In the examples that follow, each entry is paired with its recorded pIC50.
CC(=O)N1c2ccc(-c3cnn(C4CC4)c3)cc2N(C(=O)Oc2ccccc2Cl)C[C@@H]1C ... 6.00 to 7.00
CC(=O)N1c2ccc(-c3ccc(S(=O)(=O)CCO)cc3)cc2N(C(=O)c2ccco2)C[C@@H]1C ... 5.00 to 6.00
CC(=O)N1c2ccc(-c3cnn(C4COC4)c3)cc2N(C(=O)OCC2CC2(C)C)C[C@@H]1C (stereo partly shown) ... 5.00 to 6.00

// each compound listed below needs its pIC50
1. CC(=O)N1c2ccc(C(=O)N3CCCC3)cc2N(C(=O)c2ccco2)C[C@@H]1C
2. CC(=O)N1c2ccc(-c3cnn(CCO)c3)cc2N(C(=O)Oc2ccc(F)cc2)C[C@@H]1C
3. CC(=O)N1c2ccc(-c3cnn(CC4(CO)COC4)c3)cc2N(C(=O)OC(C)C)C[C@@H]1C
4. CC(=O)N1c2ccc(-c3ccc(S(C)(=O)=O)cc3)cc2N(C(=O)c2ccc(-c3ccccc3)o2)C[C@@H]1C
5. CC(=O)N1c2ccc(-c3cn(C)nn3)cc2N(C(=O)c2ccco2)C[C@@H]1C
6. CC(=O)N1c2ccc(-c3cnn(CC4CCC4)c3)cc2N(C(=O)OC(C)C)C[C@@H]1C

Response given:
< 5.00
6.00 to 7.00
> 7.00
< 5.00
5.00 to 6.00
6.00 to 7.00

// each compound listed below needs its pIC50
1. CC(=O)N1c2ccc(-c3cccc4c3OCO4)cc2N(C(=O)c2ccco2)C[C@@H]1C
2. CC(=O)N1c2ccc(-c3cnn(CCCO)c3)cc2N(C(=O)C2CC2)C[C@@H]1C
3. CCCS(=O)(=O)c1ccc(-c2ccc3c(c2)N(C(=O)OC2CCOCC2)C[C@H](C)N3C(C)=O)cc1

Response given:
["6.00 to 7.00", "6.00 to 7.00", "6.00 to 7.00"]

// each compound listed below needs its pIC50
1. COC(=O)N1c2ccc(-c3cnn(C4CNC4)c3)cc2N(C(=O)Oc2cccnc2)C[C@@H]1C
2. CNS(=O)(=O)c1ccc(-c2ccc3c(c2)N(C(=O)OC(C)C)C[C@H](C)N3C(C)=O)cc1
3. CC(=O)N1c2ccc(-c3ccc(C(=O)NCCN(C)C)cc3)cc2N(C(=O)OC(C)C)C[C@@H]1C
4. CCOC(=O)N1C[C@H](C)N(C(C)=O)c2ccc(-c3cccc(N4CCCS4(=O)=O)c3)cc21
5. CC(=O)N1c2ccccc2N(S(=O)(=O)c2cccc(C#N)c2)C[C@@H]1C

Response given:
1. 5.00 to 6.00
2. 6.00 to 7.00
3. 6.00 to 7.00
4. 6.00 to 7.00
5. < 5.00

// each compound listed below needs its pIC50
1. CC(=O)N1c2ccc(-c3ccc(S(C)(=O)=O)cc3)cc2N(C(=O)OC(C)C)C[C@H]1C
2. CC(=O)N1c2ccc(-c3ccc(CN4CCCS4(=O)=O)cc3)cc2N(C(=O)c2ccco2)C[C@@H]1C
3. COc1cc(OC(=O)N2C[C@H](C)N(C(C)=O)c3ccc(-c4cnn(C5CC5)c4)cc32)c(Cl)cn1
4. CC(=O)N1c2ccc(NCc3ccccc3)cc2N(C(=O)c2ccco2)C[C@@H]1C

Response given:
1. < 5.00
2. 6.00 to 7.00
3. 5.00 to 6.00
4. 5.00 to 6.00
